tested on: Strep. suis (group D) SPS11; assay: MIC against veterinary bacteria in vitro; details: Streptococcus suis, 18 h

>  <COMPOUND>
C/C(=C\c1ncc(-c2cccc([S+](C)[O-])c2)o1)C[C@@H]1OC[C@H](C[C@@H]2O[C@H]2[C@@H](C)[C@H](C)O)[C@@H](O)[C@H]1O (some centres unmarked) [Example 25]

>  <EXPERIMENTAL TARGET>
Strep. suis (group D) SPS11

>  <VALUE RELATION SIGN>
=

>  <MIC [µg/mL]>
20

$$$$
>  <COMPOUND>
C/C(=C\c1ncc(-c2ccccc2)o1)C[C@@H]1OC[C@H](C[C@@H]2O[C@H]2[C@@H](C)[C@H](C)O)[C@@H](O)[C@H]1O [Example 1, 2-(1-normon-2-yl)-5-phenyloxazole A]

>  <EXPERIMENTAL TARGET>
Strep. suis (group D) SPS11

>  <VALUE RELATION SIGN>
=

>  <MIC [µg/mL]>
20

$$$$
>  <COMPOUND>
C/C(=C\c1ncc(Cc2ccccc2)o1)C[C@@H]1OC[C@H](C[C@@H]2O[C@H]2[C@@H](C)[C@H](C)O)[C@@H](O)[C@H]1O [Example 27, 5-Benzyl-2-(1-normon-2-yl)oxazole A]

>  <EXPERIMENTAL TARGET>
Strep. suis (group D) SPS11

>  <VALUE RELATION SIGN>
>

>  <MIC [µg/mL]>
80

$$$$
>  <COMPOUND>
C/C(=C\c1ncc(C)o1)C[C@@H]1OC[C@H](C[C@@H]2O[C@H]2[C@@H](C)[C@H](C)O)[C@@H](O)[C@H]1O [Example 14, 5-Methyl-2-(1-normon-2-yl) oxazole A]

>  <EXPERIMENTAL TARGET>
Strep. suis (group D) SPS11

>  <VALUE RELATION SIGN>
>

>  <MIC [µg/mL]>
80

$$$$
>  <COMPOUND>
C/C(=C\c1nc(-c2ccccc2)c(-c2ccccc2)o1)C[C@@H]1OC[C@H](C[C@@H]2O[C@H]2[C@@H](C)[C@H](C)O)[C@@H](O)[C@H]1O [Example 41, 4,5-Diphenyl-2-(1-normon-2-yl)oxazole A]

>  <EXPERIMENTAL TARGET>
Strep. suis (group D) SPS11

>  <VALUE RELATION SIGN>
>

>  <MIC [µg/mL]>
80

$$$$

* * *

The entries below come with measured MIC values attached.
system: B. subtilis ATCC 6633; assay: MIC against veterinary bacteria in vitro; details: Bacillus subtilis, ATCC6633, 18 h

>  <MOLECULE>
C/C(=C\c1ncc(-c2cccc([S+](C)[O-])c2)o1)C[C@@H]1OC[C@H](C[C@@H]2O[C@H]2[C@@H](C)[C@H](C)O)[C@@H](O)[C@H]1O (stereo partly drawn)

>  <UNIT SPEC>
µg/mL

>  <MIC>
2.5

$$$$
>  <MOLECULE>
CSc1cccc(-c2cnc(/C=C(\C)C[C@@H]3OC[C@H](C[C@@H]4O[C@H]4[C@@H](C)[C@H](C)O)[C@@H](O)[C@H]3O)o2)c1

>  <UNIT SPEC>
µg/mL

>  <MIC>
0.625

$$$$
>  <MOLECULE>
C/C(=C\c1ncc(-c2ccc(S(=O)(=O)N(C)C)cc2)o1)C[C@@H]1OC[C@H](C[C@@H]2O[C@H]2[C@@H](C)[C@H](C)O)[C@@H](O)[C@H]1O

>  <UNIT SPEC>
µg/mL

>  <MIC>
0.312

$$$$
>  <MOLECULE>
C/C(=C\c1ncc(-c2ccccc2[N+](=O)[O-])o1)C[C@@H]1OC[C@H](C[C@@H]2O[C@H]2[C@@H](C)[C@H](C)O)[C@@H](O)[C@H]1O

>  <UNIT SPEC>
µg/mL

>  <MIC>
0.312

$$$$
>  <MOLECULE>
C/C(=C\c1ncc(-c2cccc(S(C)(=O)=O)c2)o1)C[C@@H]1OC[C@H](C[C@@H]2O[C@H]2[C@@H](C)[C@H](C)O)[C@@H](O)[C@H]1O

>  <UNIT SPEC>
µg/mL

>  <MIC>
1.25

$$$$
>  <MOLECULE>
C/C(=C\c1ncc(-c2ccc(Br)s2)o1)C[C@@H]1OC[C@H](C[C@@H]2O[C@H]2[C@@H](C)[C@H](C)O)[C@@H](O)[C@H]1O

>  <UNIT SPEC>
µg/mL

>  <MIC>
0.07

$$$$
>  <MOLECULE>
C/C(=C\c1ncc(Cc2ccccc2)o1)C[C@@H]1OC[C@H](C[C@@H]2O[C@H]2[C@@H](C)[C@H](C)O)[C@@H](O)[C@H]1O

>  <UNIT SPEC>
µg/mL

>  <MIC>
2.5

$$$$
>  <MOLECULE>
C/C(=C\c1ncc(-c2ccsc2)o1)C[C@@H]1OC[C@H](C[C@@H]2O[C@H]2[C@@H](C)[C@H](C)O)[C@@H](O)[C@H]1O

>  <UNIT SPEC>
µg/mL

>  <MIC>
10

$$$$
>  <MOLECULE>
C/C(=C\c1ncc(-c2ccc(C#N)cc2)o1)C[C@@H]1OC[C@H](C[C@@H]2O[C@H]2[C@@H](C)[C@H](C)O)[C@@H](O)[C@H]1O

>  <UNIT SPEC>
µg/mL

>  <MIC>
2.5

$$$$

* * *

tested on: M. hyorhinis ATCC 23234; test: MIC against mycoplasma in vitro; assay type: cell-based; details: Mesomycoplasma hyorhinis, ATCC23234, 144 h
Under this convention, Satisfied denotes MIC strictly below 0.2 µg/mL and Not satisfied denotes MIC at or above 0.2 µg/mL.

>  <COMPOUND>
C/C(=C\c1ncc(-c2cccc([S+](C)[O-])c2)o1)C[C@@H]1OC[C@H](C[C@@H]2O[C@H]2[C@@H](C)[C@H](C)O)[C@@H](O)[C@H]1O (stereo partly shown) [Example 25]

>  <ANSWER LABEL>
Not satisfied

$$$$
>  <COMPOUND>
C/C(=C\c1cc(-c2ccccc2)on1)C[C@@H]1OC[C@H](C[C@@H]2O[C@H]2[C@@H](C)[C@H](C)O)[C@@H](O)[C@H]1O [Example 34, 3-(1-Normon-2-yl)-5-phenylisoxazole A]

>  <ANSWER LABEL>
Not satisfied

$$$$
>  <COMPOUND>
C/C(=C\c1ncc(-c2cccc([N+](=O)[O-])c2)o1)C[C@@H]1OC[C@H](C[C@@H]2O[C@H]2[C@@H](C)[C@H](C)O)[C@@H](O)[C@H]1O [Example 6]

>  <ANSWER LABEL>
Satisfied

$$$$
>  <COMPOUND>
C/C(=C\c1ncc(C)o1)C[C@@H]1OC[C@H](C[C@@H]2O[C@H]2[C@@H](C)[C@H](C)O)[C@@H](O)[C@H]1O [Example 14, 5-Methyl-2-(1-normon-2-yl) oxazole A]

>  <ANSWER LABEL>
Not satisfied

$$$$
>  <COMPOUND>
C/C(=C\c1cc(C)on1)C[C@@H]1OC[C@H](C[C@@H]2O[C@H]2[C@@H](C)[C@H](C)O)[C@@H](O)[C@H]1O [Example 33, 5-Methyl-3-(1-normon-2-yl) isoxazole A]

>  <ANSWER LABEL>
Not satisfied

$$$$
>  <COMPOUND>
C/C(=C\c1ncc(-c2ccc(S(=O)(=O)N(C)C)cc2)o1)C[C@@H]1OC[C@H](C[C@@H]2O[C@H]2[C@@H](C)[C@H](C)O)[C@@H](O)[C@H]1O [Example 24]

>  <ANSWER LABEL>
Satisfied

$$$$
>  <COMPOUND>
C/C(=C\c1ncc(-c2ccc(CO)cc2)o1)C[C@@H]1OC[C@H](C[C@@H]2O[C@H]2[C@@H](C)[C@H](C)O)[C@@H](O)[C@H]1O [Example 13]

>  <ANSWER LABEL>
Satisfied

$$$$
>  <COMPOUND>
C/C(=C\c1ncc(-c2ccccc2[N+](=O)[O-])o1)C[C@@H]1OC[C@H](C[C@@H]2O[C@H]2[C@@H](C)[C@H](C)O)[C@@H](O)[C@H]1O [Example 26]

>  <ANSWER LABEL>
Not satisfied

$$$$
>  <COMPOUND>
C/C(=C\c1ncc(-c2ccc(S(C)(=O)=O)cc2)o1)C[C@@H]1OC[C@H](C[C@@H]2O[C@H]2[C@@H](C)[C@H](C)O)[C@@H](O)[C@H]1O [Example 10]

>  <ANSWER LABEL>
Satisfied

$$$$
>  <COMPOUND>
C/C(=C\c1ncc(-c2ccc(Br)cc2)o1)C[C@@H]1OC[C@H](C[C@@H]2O[C@H]2[C@@H](C)[C@H](C)O)[C@@H](O)[C@H]1O [Example 18]

>  <ANSWER LABEL>
Not satisfied

$$$$
